// note: IC50 values for Tyrosine-protein phosphatase non-receptor type 11 (Homo sapiens, UniProt Q06124) were reported in different studies

{"CHEMICAL_SMILES": "CC1(CN)CCN(c2nc3[nH]nc(Nc4cccc(Cl)c4Cl)c3c(=O)[nH]2)CC1", "READOUT": "IC50", "TEST_VALUE": "≤ 50 nM"}

Query block: Determine reported IC50 for N[C@@H]1COCC12CCN(c1ncc(Sc3cccc(Cl)c3Cl)[nH]c1=O)CC2 ; test system: Tyrosine-protein phosphatase non-receptor type 11 (Homo sapiens, UniProt Q06124).
Result block: ≤ 50 nM

Query block: Determine reported IC50 for Cc1c2c(Cl)c(-c3n[nH]c4nc(N5CCC6(CC5)CO[C@@H](C)[C@H]6N)c(CO)nc34)ccc2nn1C ; test system: Tyrosine-protein phosphatase non-receptor type 11 (Homo sapiens, UniProt Q06124).
Result block: 15 nM

----------
// note: IC50 values for Tyrosine-protein phosphatase non-receptor type 11 (Homo sapiens) were reported in different studies

Query block: Determine reported IC50 for N[C@@H]1COCC12CCN(c1ncc(Sc3ccnc(Cl)c3Cl)[nH]c1=O)CC2 ; test system: Tyrosine-protein phosphatase non-receptor type 11 (Homo sapiens).
Result block: ≤ 50 nM

Query block: Determine reported IC50 for Cc1nc2c(-c3ccc4ncc(N(C)C)nc4c3Cl)n[nH]c2nc1N1CCC2(CCC[C@H]2N)CC1 ; test system: Tyrosine-protein phosphatase non-receptor type 11 (Homo sapiens).
Result block: 15 nM

Query block: Determine reported IC50 for C[C@@H]1OCC2(CCN(c3ncc(Sc4cccc(F)c4F)[nH]c3=O)CC2)[C@@H]1N ; test system: Tyrosine-protein phosphatase non-receptor type 11 (Homo sapiens).
Result block: ≤ 50 nM

Query block: Determine reported IC50 for Cn1c(N2CCC(C)(CN)C2)nc(N)c(Sc2cccc(Cl)c2Cl)c1=O (centres unmarked) ; test system: Tyrosine-protein phosphatase non-receptor type 11 (Homo sapiens).
Result block: ≤ 50 nM

Query block: Determine reported IC50 for C=C1C[C@@]2(C[C@H](C)[C@H]3CC=C(CO)C(=O)[C@@H]3O2)OC1=O ; test system: Tyrosine-protein phosphatase non-receptor type 11 (Homo sapiens).
Result block: 33300 nM

Query block: Determine reported IC50 for Cn1c(-c2ccc(C(=O)Nc3ccc(OCc4ccccc4)c(Cl)c3)cc2)c(I)c2cc(C(=O)O)c(O)cc21 ; test system: Tyrosine-protein phosphatase non-receptor type 11 (Homo sapiens).
Result block: 1600 nM

Query block: Determine reported IC50 for C[C@@H]1OCC2(CCN(c3ncc(Sc4cc[nH]c(=O)c4Cl)[nH]c3=O)CC2)[C@@H]1N ; test system: Tyrosine-protein phosphatase non-receptor type 11 (Homo sapiens).
Result block: ≤ 50 nM

Query block: Determine reported IC50 for NC1CCCC(n2ccc(-c3cccc(Cl)c3Cl)cc2=O)C1 (centres unmarked) ; test system: Tyrosine-protein phosphatase non-receptor type 11 (Homo sapiens).
Result block: ≤ 50 nM
